Where these numbers come from: ChEMBL document CHEMBL5390258

# IC50 per record follows
TESTED_TARGET: NACHT, LRR and PYD domains-containing protein 3 (Homo sapiens)
ASSAY: Inhibition of NLRP3 in human THP-1 cells assessed as reduction in IL-1beta production
Type: cell-based
ENDPOINT: IC50

>  <MOLECULE>
CC(C)c1cc(F)cc(C(C)C)c1NC(=O)N=[S+](N)([O-])c1ccc2ccccc2c1 (stereo unspecified)

>  <TESTED_TARGET>
NACHT, LRR and PYD domains-containing protein 3 (Homo sapiens)

>  <RECORDED_MEASUREMENT>
> 30000 nM

$$$$
>  <MOLECULE>
Cc1cc2c(c(NC(=O)NS(=O)(=O)c3cc(C(C)(C)O)co3)c1-c1ccnc(OC3CCN(C)CC3)c1)CCC2

>  <TESTED_TARGET>
NACHT, LRR and PYD domains-containing protein 3 (Homo sapiens)

>  <RECORDED_MEASUREMENT>
≤ 250 nM

$$$$
>  <MOLECULE>
Cc1cc(Br)cc(C)c1-n1cc2c(=O)[nH]c(N3C=COCC3)nc2n1

>  <TESTED_TARGET>
NACHT, LRR and PYD domains-containing protein 3 (Homo sapiens)

>  <RECORDED_MEASUREMENT>
3 nM

$$$$
>  <MOLECULE>
Cc1cc2c(c(NC(=O)N[S+](=N)([O-])c3ccccc3)c1-c1ccnc(OC3CCN(C)CC3)c1)CCC2 (stereo unspecified)

>  <TESTED_TARGET>
NACHT, LRR and PYD domains-containing protein 3 (Homo sapiens)

>  <RECORDED_MEASUREMENT>
< 250 nM

$$$$
>  <MOLECULE>
Cc1nc(C(C)C)c(NC(=O)NS(=O)(=O)c2cc(C(C)(C)O)co2)n1-c1ccncc1

>  <TESTED_TARGET>
NACHT, LRR and PYD domains-containing protein 3 (Homo sapiens)

>  <RECORDED_MEASUREMENT>
≤ 250 nM

$$$$
>  <MOLECULE>
CC(C)c1cc(F)cc(C(C)C)c1NC(=O)N=[S+](N)([O-])c1ccccc1-c1ccccc1 (stereo unspecified)

>  <TESTED_TARGET>
NACHT, LRR and PYD domains-containing protein 3 (Homo sapiens)

>  <RECORDED_MEASUREMENT>
> 30000 nM

$$$$

###

TESTED_TARGET: NACHT, LRR and PYD domains-containing protein 3 (Homo sapiens)
ASSAY: Inhibition of NLR3 in human Whole blood cell assessed as reduction in IL-1beta production preincubated for 0.5 hrs followed by LPS treatement for […] and further addition of ATP measured after 45 mins by ELISA assay
Format: tissue-based
ENDPOINT: IC50

>  <SMILES_STR>
O=C(Nc1c2c(cc3c1CCC3)CCC2)NS(=O)(=O)c1cc2c(o1)C1CCN(CC1)C2

>  <ENDPOINT>
IC50

>  <RECORDED_MEASUREMENT>
< 1 µM

$$$$

###

# pIC50 per record follows
TESTED_TARGET: NACHT, LRR and PYD domains-containing protein 3 (Homo sapiens, UniProt Q96P20)
Sequence (Q96P20 whole entry, the tested form may be a part): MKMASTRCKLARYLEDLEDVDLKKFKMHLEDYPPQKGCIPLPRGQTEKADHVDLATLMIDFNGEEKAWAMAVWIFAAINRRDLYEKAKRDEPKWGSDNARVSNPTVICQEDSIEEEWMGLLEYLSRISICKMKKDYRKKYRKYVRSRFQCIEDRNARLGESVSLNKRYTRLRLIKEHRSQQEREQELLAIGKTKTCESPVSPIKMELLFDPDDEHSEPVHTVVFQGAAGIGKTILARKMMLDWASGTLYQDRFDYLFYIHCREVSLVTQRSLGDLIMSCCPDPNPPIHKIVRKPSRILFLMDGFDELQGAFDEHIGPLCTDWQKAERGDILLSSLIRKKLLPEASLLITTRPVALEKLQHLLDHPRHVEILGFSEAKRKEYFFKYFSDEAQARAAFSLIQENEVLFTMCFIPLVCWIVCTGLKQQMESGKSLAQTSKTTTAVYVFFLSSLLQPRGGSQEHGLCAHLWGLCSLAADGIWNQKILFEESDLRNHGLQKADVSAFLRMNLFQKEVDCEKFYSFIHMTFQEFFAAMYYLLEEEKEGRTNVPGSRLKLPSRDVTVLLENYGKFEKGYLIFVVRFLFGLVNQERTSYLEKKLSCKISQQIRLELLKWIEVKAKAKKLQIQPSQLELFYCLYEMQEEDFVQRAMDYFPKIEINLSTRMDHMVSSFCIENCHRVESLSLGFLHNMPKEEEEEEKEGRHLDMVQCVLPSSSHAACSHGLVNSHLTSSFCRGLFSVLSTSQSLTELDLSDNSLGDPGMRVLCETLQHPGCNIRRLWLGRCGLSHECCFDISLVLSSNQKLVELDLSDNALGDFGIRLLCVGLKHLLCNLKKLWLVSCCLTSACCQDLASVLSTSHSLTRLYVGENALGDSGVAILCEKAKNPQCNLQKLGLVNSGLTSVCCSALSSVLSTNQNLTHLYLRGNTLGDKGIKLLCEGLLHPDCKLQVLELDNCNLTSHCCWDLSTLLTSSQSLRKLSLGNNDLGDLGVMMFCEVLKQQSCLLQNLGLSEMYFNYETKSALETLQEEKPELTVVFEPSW
ASSAY: Inhibition of NLRP3 in LPS induced human THP-1 cells assessed as reduction in IL-1beta production preincubated for 3 hrs followed by nigericin addition measured after 1 hrs by resazurin staining based assay
Assay type: cell-based
pIC50: −log10 of the molar value.

>  <SMILES_STR>
Cn1ncc2ccc(S(=O)(=O)NC(=O)Nc3c4c(cc5c3CCC5)CCC4)cc21

>  <pIC50>
> 6.00

$$$$
>  <SMILES_STR>
O=S1(=O)c2nnc([nH]2)Nc2c(ccc3c2CCC3)-c2ccnc(c2)OCCCN2CCC3(CC1C3)C2

>  <pIC50>
≥ 7.00

$$$$

###

TESTED_TARGET: NACHT, LRR and PYD domains-containing protein 3 (Homo sapiens)
ASSAY: Inhibition of NLRP3 in human THP-1 cells assessed as reduction in IL-1beta production measured after 1 hrs by ELISA assay
Format: cell-based
# IC50 per record follows

>  <COMPOUND>
CC(C)c1nn(CC(=O)Nc2ncncc2F)c(=O)c2cc(C(F)(F)F)ccc12

>  <TESTED_TARGET>
NACHT, LRR and PYD domains-containing protein 3 (Homo sapiens)

>  <VALUE_RELATION_SIGN>
>

>  <IC50, µM>
50

$$$$
>  <COMPOUND>
CCc1c(-c2cccc(F)c2)c(C(C)C)nn(CC(=O)Nc2ncncc2F)c1=O

>  <TESTED_TARGET>
NACHT, LRR and PYD domains-containing protein 3 (Homo sapiens)

>  <VALUE_RELATION_SIGN>
=

>  <IC50, µM>
35.3

$$$$
>  <COMPOUND>
CC(C)c1nn(C2(C(=O)Nc3ncccn3)CC2)c(=O)cc1-c1cc(F)cc(F)c1

>  <TESTED_TARGET>
NACHT, LRR and PYD domains-containing protein 3 (Homo sapiens)

>  <VALUE_RELATION_SIGN>
=

>  <IC50, µM>
1.14

$$$$
>  <COMPOUND>
CC(C)c1nn(C(C)C(=O)Nc2ncc(F)cn2)c(=O)c2ccc(Br)cc12 (centres undefined)

>  <TESTED_TARGET>
NACHT, LRR and PYD domains-containing protein 3 (Homo sapiens)

>  <VALUE_RELATION_SIGN>
=

>  <IC50, µM>
3.66

$$$$

###

ASSAY: Oral bioavailability in Sprague-Dawley rat measured upto 24 hrs by LC-MS/MS analysis
Assay type: ADME, organism-based
EXPERIMENTAL_CONDITIONS: in vivo

>  <COMPOUND>
CCN1CCC(S(=O)(=O)NC(=O)Nc2c3c(cc4c2CCC4)CCC3)CC1 [SELNOFLAST]

>  <bioavailability>
76.7%

$$$$

###

TESTED_TARGET: NACHT, LRR and PYD domains-containing protein 3 (Homo sapiens, UniProt Q96P20)
ASSAY: Inhibition of NLRP3 in human Whole blood cell assessed as reduction in IL-1beta production incubated for overnight in presence of ATP by ELISA
Assay type: tissue-based
pIC50: −log10 of the molar value.

>  <SMILES_STR>
O=C(Nc1c(C2CC2)ccc2c1CCC2)NS(=O)(=O)c1cc2c(o1)C1CCN(CC1)C2

>  <pIC50>
> 6.00

$$$$

###

TESTED_TARGET: NACHT, LRR and PYD domains-containing protein 3 (Homo sapiens, UniProt Q96P20)
ASSAY: Inhibition of NLRP3 in human THP-1 cells assessed as reduction in IL-1beta production by AlphaLISA assay
Format: cell-based
ENDPOINT: IC50

>  <SMILES_STR>
O=C1Nc2c(ccc3c2CCC3)-c2ccnc(c2)OCCn2cc(F)c(n2)S(=O)(=O)N1

>  <TESTED_TARGET>
NACHT, LRR and PYD domains-containing protein 3 (Homo sapiens, UniProt Q96P20)

>  <RECORDED_MEASUREMENT>
< 100 nM

$$$$
